test: NCI Yeast Anticancer Drug Screen. Data for the mec2-1 strain (AID 157); conditions: S. cerevisiae mec2-1 strain, at 50.0 µM
The panel holds about 79,000 compounds, 15% with a hit somewhere; the sample as a whole holds those more often. Calls of active or inactive are those of the source. Cut-off read from the data, not from the text of the source: active = growth inhibition above about 70%; inactive = the rest.
Write down one outcome, taken from YES = active, NO = inactive

Observe how each entry below is paired with its result.
# MOLECULE, CATEGORY
rows = [
    ("CC(CCC(=O)O)[C@H]1CCC2[C@H]3C(CC[C@@]21C)[C@@]1(C)CCC(O)C[C@H]1C[C@@H]3O (stereo partly specified)", "YES"),
    ("COC(=O)c1ccc(CSc2ccc(OC)cc2)cc1", "YES"),
]

Given CCCCN(CCCC)CCNc1ccc(NS(=O)(=O)c2ccccc2)c2sc3ccccc3c(=O)c12 , state the outcome it received in this test.
YES

Status in this test for O=[N+]([O-])c1ccc2c(c1)/C(=N/O)c1ccccc1-2 ?
NO

State the result this test recorded for O=C(CC(=O)c1ccccc1)CC(=O)c1ccccc1 .
NO

Recorded test outcome, item C\C=C/C=C/C=C/C(=O)O
NO

Which outcome did this test record for the molecule CCOP(=O)(OCC)/C(C#N)=C/c1ccc(C(F)(F)F)cc1 ?
YES

Hi, do you know how CC/C(=C(\CC)c1ccc(O)c(CN(CCO)CCO)c1)c1ccc(O)cc1 came out in this test?
NO

// param item: Oc1ccc(C2Oc3ccccc3C=C2c2ccccc2)cc1 (stereo unspecified) ; yields the recorded call
NO

Outcome logged for C=CCCCN1C(=O)C2C3c4ccccc4C(C=O)(c4ccccc43)C2C1=O (stereo unspecified) in this assay:
NO

Which outcome was entered for the molecule Cc1ccnc2[nH]c3ccccc3c(=O)c12 in this test?
NO

* * *

experiment: NCI Yeast Anticancer Drug Screen. Data for the rad50 strain (AID 155);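 note: 0% = growth of vehicle-only cultures of the same strain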; settings: S. cerevisiae rad50 strain growth inhibition; at 50.0 µM
The panel holds about 79,000 compounds, 15% with a hit somewhere; the sample as a whole holds those more often. Activity calls are given as the source filed them. Rule as the data show it: active = growth inhibition above about 70%; inactive = the rest.
Pick one and only one: active, inactive

Use these answered entries as a reference point.
# COMPOUND, CATEGORY
rows = [
    ("N#CC1(C#N)C(C#N)(C#N)C12CCCCCC2", "active"),
    ("CCC1CCC(CC)C1O (centres undefined)", "inactive"),
]

Now for another entry.
Query: recorded result category for NNc1cccc(C(F)(F)F)c1 in this test
active

* * *

assay: NCI Yeast Anticancer Drug Screen. Data for the mlh1 rad18 strain (AID 175); conditions: S. cerevisiae mlh1 rad18 strain growth inhibition; at 5.0 µM (retest, dose inferred, filed as 0.5); stronger effect = higher value
This is part of a sample that, as a whole, favours compounds with a hit. Of some 79,000 tested, about 15% had one in any assay.
Reported growth inhibition is given for each of the following compounds.
The answer is to be given in %; state only the numeric part.

In the examples that follow, each entry is paired with its recorded growth inhibition.
# COMPOUND, MEASURED METRIC, VALUE UNIT, READOUT NUMBER
data = [
    ("Cc1c2ccccc2c(CO)c2cc(F)c3ccccc3c12", "growth inhibition", "%", 95),
    ("CS(=O)(=O)OCCN(CCOS(C)(=O)=O)c1ccc(C=Nc2ccc(-c3csc(-c4ccc(Cl)cc4)n3)cc2)cc1", "growth inhibition", "%", 53),
    ("COC(=O)c1nnn(-c2cccc(C(F)(F)F)c2)c1C(=O)c1ccc(Cl)c(Cl)c1", "growth inhibition", "%", 4),
    ("CC1=C(C)C1[N+](=O)[O-]", "growth inhibition", "%", 64),
    ("COC(=O)c1ccc(NCc2c(O)ccc(O)c2Br)cc1Cl", "growth inhibition", "%", 25),
]

Which growth inhibition is reported for this compound? Cc1ccc(N2CC(O)CN(c3ccc(C)cc3)CC(O)C2)cc1 (centres undefined)
33

growth inhibition for CC(C)C1=CC(=O)C(C)(C2C(O)CC3(C)C4CC=C5C(CCC(O)C5(C)C)C4(C)C(=O)CC23C)O1 (centres undefined) ?
85

Report growth inhibition for CCOC(=O)C(Br)c1nc2ccccc2[nH]c1=O (centres undefined) please.
-5

Bench note: what growth inhibition did COC(=O)c1c(C)cccc1C(=O)c1c(C)cc(C)cc1C show?
4

Please report the recorded growth inhibition for COc1ccc(N=Nc2ccc3oc(=O)c(C(=O)Nc4ccccc4C)cc3c2)cc1 .
-2

Fill blank: measured growth inhibition of the compound O=C1CCCC/C1=C\c1ccc(Cl)c(Cl)c1 is ____.
18

// returns reported growth inhibition for input CCOP(=O)(OCC)/C(C#N)=C/c1ccc(C(F)(F)F)cc1
3

Reported growth inhibition for C=C1OC(=O)C(=O)N1CC(=O)O : what is it?
-139

// query growth inhibition value for entry CCN(CC)P(=S)(c1ccccc1CCP(=S)(c1ccccc1)c1ccccc1)N(CC)CC
-4

I am curious: what growth inhibition value has been reported for CCOC(=O)C(Cl)C(Cl)C(=O)OCC (centres undefined) ?
12

growth inhibition lookup needed for Nc1c(Cl)nc(C(F)(F)F)nc1NCc1ccccc1 , thanks.
91

// growth inhibition lookup, key: Nc1ccc(S(=O)(=O)N2CCCc3ccccc32)cc1
7

# growth inhibition lookup, item CCOc1c(N=Nc2ccccc2Cl)c(-c2ccccc2)nn1C(=S)S
-2

Recorded growth inhibition of CCN(CC)Cc1ccc(Nc2cc(C)nc(/N=C(\N)Nc3ccc(Cl)c(Cl)c3)n2)cc1 , please.
55

Need growth inhibition, item CN(C)CCCNc1c2ccccc2nc2ccc(F)cc12
14

Given CC(CCC(=O)O)[C@H]1CCC2[C@@H]3CC(O)[C@@H]4CC(O)CC[C@]4(C)C3CC[C@@]21C (some centres undefined) , state its recorded growth inhibition.
-8

What value of measured growth inhibition is listed for CCc1ccccc1NC1=C(Cl)C(=O)c2ccccc2C1=O ?
99

What does the data say about its growth inhibition? Entry: Cc1ccccc1NCc1ccccc1Cl
-105

Need growth inhibition of S=C(Nc1ccccc1)SCc1ccc(Cl)cc1 , thanks.
-7

* * *

Assay: NCI Yeast Anticancer Drug Screen. Data for the bub3 strain (AID 167)
Details: S. cerevisiae bub3 mutant strain, at 50.0 µM (retest, dose inferred, filed as 5.0)
Procedure: Growth inhibition of yeast strains with defined genetic alterations is measured as a screen for potential anti-cancer activity. Selected strains with alterations in DNA damage repair or cell cycle control were exposed to compounds and growth inhibition was measured relative to vehicle treated controls. The strain used in this assay is bub3
Compounds without any hit were thinned out: in the full panel of roughly 79,000, 15% have a hit. Calls of active or inactive are those of the source. Rule as the data show it: active = growth inhibition above about 70%; inactive = the rest.
Allowed answers: active, inactive

Below, 9 compounds whose answers are already recorded.
# COMPOUND, CATEGORY
measured = [
    ("CC(C)c1ccc2c(c1)CC[C@H]1[C@](C)(CN)CCC[C@]21C", "active"),
    ("NC(=O)c1oc([N+](=O)[O-])c(-c2ccccc2)c1-c1ccccc1", "active"),
    ("Cc1cc(N(CCC#N)CCC#N)ccc1/C(Sc1ccccc1)=C(\\NC(=O)/C=C/c1ccccc1)C(=O)Sc1ccccc1", "inactive"),
    ("O=[N+]([O-])C(=C(Nc1ccccc1)Nc1ccccc1)/C(Cl)=C(\\Cl)Br", "active"),
    ("C[C@]12CC[C@H]3[C@@H](CCC4=CC(=O)CC[C@@]43C)[C@@H]1CC[C@@H]2C(=O)C=O", "inactive"),
    ("O=[N+]([O-])c1ccc(C2=Nn3cnnc3SC2)o1", "active"),
    ("BrCc1ccc([Si](c2ccccc2)(c2ccccc2)c2ccc(CBr)cc2)cc1", "inactive"),
    ("COc1ccc2c(Cc3ccccc3)c3[n+](cc2c1OC)CCc1cc2c(cc1-3)OCO2", "active"),
    ("COc1ccc(C(=O)Nc2ccccc2OC)cc1", "inactive"),
]

How was Cc1ccc(S(=O)(=O)NC(CCC(=O)Nc2ccccc2)C(=O)O)cc1 (stereo not given) classified in this test?
inactive

* * *

assay: NCI Yeast Anticancer Drug Screen. Data for the mec2-1 strain (AID 157); conditions: S. cerevisiae mec2-1 strain, at 50.0 µM (retest, dose inferred, filed as 5.0), stronger effect = higher value
About 79,000 compounds went through this panel and 15% of them were active in at least one assay; those are over-represented in the sample as a whole.
Is growth inhibition at least 80%? Then true. If not, false.

# MOLECULE, CATEGORY
rows = [
    ("O=S(=O)(C#Cc1ccccc1)c1ccccc1", "true"),
    ("COc1ccc(C(=O)[O][Sn]([c]2ccccc2)([c]2ccccc2)[c]2ccccc2)c(OC)c1OC", "true"),
    ("CCCCCc1cc(Cl)cc(Cl)c1O", "false"),
    ("CN1C(/C=C/c2ccc(O)c3ncccc23)CCC2CCCC(O)C21 (stereo unspecified)", "true"),
    ("Cc1cc(N(CCC#N)CCC#N)ccc1/C(Sc1ccccc1)=C(\\NC(=O)/C=C/c1ccccc1)C(=O)Sc1ccccc1", "false"),
]

Consider the additional molecule presented here.
Can O=[N+]([O-])c1ccc(Cl)cc1C(Nc1nncs1)Nc1nncs1 be said to have growth inhibition at or above 80%?
false
